Data provenance: ChEMBL document CHEMBL1125558

- Study Target: Sodium-dependent dopamine transporter (Rattus norvegicus, UniProt P23977)
- Sequence (P23977 whole entry): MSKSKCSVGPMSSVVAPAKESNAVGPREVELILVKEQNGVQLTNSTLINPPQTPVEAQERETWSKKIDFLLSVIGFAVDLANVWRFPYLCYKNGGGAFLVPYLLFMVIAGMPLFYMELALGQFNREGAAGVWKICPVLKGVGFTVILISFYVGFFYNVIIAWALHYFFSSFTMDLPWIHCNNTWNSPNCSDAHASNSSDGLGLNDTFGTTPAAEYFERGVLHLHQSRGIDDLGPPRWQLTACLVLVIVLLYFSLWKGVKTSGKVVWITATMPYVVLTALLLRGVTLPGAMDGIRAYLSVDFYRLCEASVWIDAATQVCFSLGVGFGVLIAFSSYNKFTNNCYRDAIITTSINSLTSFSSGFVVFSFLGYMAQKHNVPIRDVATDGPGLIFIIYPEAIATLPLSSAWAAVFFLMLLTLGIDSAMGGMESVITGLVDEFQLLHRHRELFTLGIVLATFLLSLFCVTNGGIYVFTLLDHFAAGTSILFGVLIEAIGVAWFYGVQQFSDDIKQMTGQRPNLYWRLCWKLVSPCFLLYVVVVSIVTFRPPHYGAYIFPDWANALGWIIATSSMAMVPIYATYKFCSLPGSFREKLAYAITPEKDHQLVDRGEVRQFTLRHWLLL
Parameter: pIC50
Quick note: pIC50 values are minus log10 of concentrations in mol/L.

Please report the measured pIC50 for `CN1C2CC[C@@H]1C[C@H](OC(=O)c1ccccc1)[C@@H]2/C=C/Cl`
6.65

Moving on to the next molecule.
Please report the measured pIC50 for `C=C[C@@H]1C2CC[C@H](C[C@@H]1OC(=O)c1ccccc1)N2C`
5.76
